FYI, the data here is from patent US20100249145A1.

# measured target: VEGF receptor KDR (Homo sapiens, UniProt P35968)
# Construct: made in house; host or cells: Sf9 cells (Spodoptera frugiperda), recombinant baculovirus
# Sequence (P35968 806-1356): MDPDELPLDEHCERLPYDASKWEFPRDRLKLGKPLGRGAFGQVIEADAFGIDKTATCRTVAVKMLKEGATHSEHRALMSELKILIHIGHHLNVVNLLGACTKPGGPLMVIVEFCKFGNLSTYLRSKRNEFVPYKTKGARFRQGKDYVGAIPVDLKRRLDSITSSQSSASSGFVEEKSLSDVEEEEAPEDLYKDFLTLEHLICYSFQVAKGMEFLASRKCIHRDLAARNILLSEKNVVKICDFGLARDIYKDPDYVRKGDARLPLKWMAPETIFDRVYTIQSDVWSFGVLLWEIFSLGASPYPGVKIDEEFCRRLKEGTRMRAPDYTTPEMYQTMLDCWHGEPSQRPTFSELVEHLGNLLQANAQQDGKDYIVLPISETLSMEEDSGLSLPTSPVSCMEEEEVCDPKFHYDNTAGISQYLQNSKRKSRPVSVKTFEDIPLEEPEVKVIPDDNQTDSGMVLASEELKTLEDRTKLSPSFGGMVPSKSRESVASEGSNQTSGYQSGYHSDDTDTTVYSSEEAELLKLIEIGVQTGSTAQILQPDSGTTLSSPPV
# test summary: In vitro receptor tyrosine kinase assay (DELFIA), VEGF receptor KDR
# Assay type: biochemical
# setup conditions: Table 30; ATP 0.6 uM, enzyme 5 nM; read-out: VEGF(enz.) (IC50)
pIC50: −log10 of the molar value.
Could you please report measured pIC50 for the items listed next?

Some solved entries appear below for comparison.
O=C(Cc1ccccc1)NC(=S)Nc1ccc(Oc2ccnc3cc(-c4ncccn4)sc23)c(F)c1 : 6.60 to 7.30
NC(=O)[C@@H]1CCCN1C(=O)c1cc2nccc(Oc3ccc(NC(=S)NC(=O)Cc4ccccc4)cc3F)c2s1 : > 7.30

Each of the following entries comes with a recorded value; kindly state pIC50 for each.
1. NC(=O)c1cc2nccc(Oc3ccc(NC(=S)NC(=O)Cc4ccccc4)cc3F)c2s1
2. O=C(Cc1ccccc1)NC(=S)Nc1ccc(Oc2ccnc3cc(C(=O)N4CCCC4)sc23)c(F)c1
3. O=C(Cc1ccccc1)NC(=S)Nc1ccc(Oc2ccnc3cc(C(=O)NCCN4CCOCC4)sc23)c(F)c1
4. CON(C)C(=O)c1cc2nccc(Oc3ccc(NC(=S)NC(=O)Cc4ccccc4)cc3F)c2s1
5. Cn1ccnc1-c1cc2nccc(Oc3ccc(NC(=S)NC(=O)Cc4ccccc4)cc3F)c2s1

["6.60 to 7.30", "> 7.30", "> 7.30", "6.60 to 7.30", "> 7.30"]

Each of the following entries comes with a recorded value; kindly state pIC50 for each.
1. CNC(=O)c1cc2nccc(Oc3ccc(NC(=S)NC(=O)Cc4ccccc4)cc3F)c2s1
2. CC(O)c1cc2nccc(Oc3ccc(NC(=S)NC(=O)Cc4ccccc4)cc3F)c2s1 (stereo not shown)
3. O=C(Cc1ccccc1)NC(=S)Nc1ccc(Oc2ccnc3cc(-c4ccccn4)sc23)c(F)c1
4. O=C(Cc1ccccc1)NC(=S)Nc1ccc(Oc2ccnc3cc(-c4nccs4)sc23)c(F)c1
5. O=C(Cc1ccccc1)NC(=S)Nc1ccc(Oc2ccnc3cc[nH]c23)c(F)c1
6. O=C(Cc1ccccc1)NC(=S)Nc1ccc(Oc2ccnc3ccsc23)cc1
7. CN(C)C(=O)c1cc2ncnc(Oc3ccc(NC(=S)NC(=O)Cc4ccccc4)cc3F)c2s1

6.60 to 7.30
< 6.30
> 7.30
> 7.30
< 6.30
< 6.30
> 7.30

Each of the following entries comes with a recorded value; kindly state pIC50 for each.
1. CN(C)C(=O)c1cc2nccc(Oc3ccc(NC(=S)NC(=O)Cc4ccccc4)cc3F)c2s1
2. CON(C)C(=O)c1cc2ncnc(Oc3ccc(NC(=S)NC(=O)Cc4ccccc4)cc3F)c2s1

["> 7.30", "6.60 to 7.30"]

* * *

# measured target: VEGF receptor KDR (Homo sapiens)
# Construct: made in house; host or cells: Sf9 cells (Spodoptera frugiperda), recombinant baculovirus
# test summary: In vitro receptor tyrosine kinase assay (DELFIA), VEGF receptor KDR
# Type: biochemical
# setup conditions: Table 30; ATP 0.6 uM, enzyme 5 nM; read-out: VEGF(enz.) (IC50)
pIC50: −log10 of the molar value.
reported property: pIC50

Some solved entries appear below for comparison.
O=C(Cc1ccccc1)NC(=S)Nc1ccc(Oc2ncnc3cc(C(=O)NCCN4CCOCC4)sc23)c(F)c1 : 6.60 to 7.30
Cn1cnnc1-c1cc2nccc(Oc3ccc(NC(=S)NC(=O)Cc4ccccc4)cc3F)c2s1 : > 7.30
O=C(Cc1ccccc1)NC(=S)Nc1ccc(Oc2ccnc3cc(-c4cccnc4)sc23)c(F)c1 : 6.60 to 7.30
CN(Cc1ccco1)C(=O)c1cc2nccc(Oc3ccc(NC(=S)NC(=O)Cc4ccccc4)cc3F)c2s1 : 6.60 to 7.30
O=C(Cc1ccccc1)NC(=S)Nc1ccc(Oc2ccnc3cc(-c4cccs4)sc23)c(F)c1 : > 7.30

// moving on: another record for pIC50
Sure, the documented pIC50 for Cn1ccc2ncnc(Oc3ccc(NC(=S)NC(=O)Cc4ccccc4)cc3F)c21 is < 6.30

* * *

# measured target: recombinant human c-Met/HGF receptor (Homo sapiens, UniProt P08581)
# Construct: His tag (histidine tag from pBlueBacHis2A); made in house; host or cells: Hi-5 cells (Trichoplusia ni), recombinant baculovirus
# Sequence (P08581 1078-1337): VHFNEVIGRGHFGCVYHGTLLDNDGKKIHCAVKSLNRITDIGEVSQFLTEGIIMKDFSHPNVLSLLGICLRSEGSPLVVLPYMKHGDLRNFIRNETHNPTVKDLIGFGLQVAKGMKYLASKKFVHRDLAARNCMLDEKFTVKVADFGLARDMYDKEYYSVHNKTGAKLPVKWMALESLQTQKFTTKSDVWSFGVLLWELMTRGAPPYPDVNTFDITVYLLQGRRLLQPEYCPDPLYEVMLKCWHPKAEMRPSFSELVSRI
# test summary: In vitro receptor tyrosine kinase assay (DELFIA), c-Met/HGF receptor
# Type: biochemical
# setup conditions: Table 31; ATP 10 uM, enzyme 25 nM; read-out: CMet ic50
pIC50: −log10 of the molar value.
reported property: pIC50

Some solved entries appear below for comparison.
C#Cc1cccc(F)c1CC(=O)NC(=S)Nc1ccc(Oc2ccnc3cc(-c4cn(C)cn4)sc23)c(F)c1 : > 7.30
C#Cc1ccc(CC(=O)NC(=S)Nc2ccc(Oc3ccnc4cc(-c5cn(CC)cn5)sc34)c(F)c2)cc1 : 6.60 to 7.30
C#Cc1ccccc1CC(=O)NC(=S)Nc1ccc(Oc2ccnc3cc(-c4cn(CCN5CCCC5)cn4)sc23)c(F)c1 : > 7.30
Cn1cnc(-c2cc3nccc(Oc4ccc(NC(=S)NC(=O)Cc5ccc(F)cc5)cc4F)c3s2)c1 [drawing 440] : > 7.30
CCn1ccnc1-c1cc2nccc(Oc3ccc(NC(=S)NC(=O)Cc4ccc(F)cc4)cc3F)c2s1 : > 7.30

Each of the following entries comes with a recorded value; kindly state pIC50 for each.
1. C#Cc1ccccc1CC(=O)NC(=S)Nc1ccc(Oc2ccnc3cc(-c4nccn4C)sc23)c(F)c1
2. C#Cc1cc(F)ccc1CC(=O)NC(=S)Nc1ccc(Oc2ccnc3cc(-c4cccc[n+]4[O-])sc23)c(F)c1
3. COCCNCc1ccc(-c2cc3nccc(Oc4ccc(NC(=O)NC(=O)Cc5ccc(F)cc5)cc4F)c3s2)cc1
4. C#Cc1cc(F)ccc1CC(=O)NC(=S)Nc1ccc(Oc2ccnc3cc(-c4cn(C)cn4)sc23)c(F)c1
5. Cn1cnc(-c2cc3nccc(Nc4ccc(NC(=S)NC(=O)Cc5ccccc5)cc4F)c3s2)c1
6. CCn1cnc(-c2cc3nccc(Oc4ccc(NC(=S)NC(=O)Cc5ccc(F)cc5)cc4F)c3s2)c1

["> 7.30", "> 7.30", "> 7.30", "> 7.30", "> 7.30", "> 7.30"]

Each of the following entries comes with a recorded value; kindly state pIC50 for each.
1. C=C(F)c1cccc(CC(=O)NC(=S)Nc2ccc(Oc3ccnc4cc(-c5cn(C)cn5)sc34)c(F)c2)c1
2. C#Cc1ccc(CC(=O)NC(=S)Nc2ccc(Oc3ccnc4cc(-c5ccc(CN6CCN(C)CC6)cc5)sc34)c(F)c2)cc1
3. C=C(F)c1ccccc1CC(=O)NC(=S)Nc1ccc(Oc2ccnc3cc(-c4cn(C)cn4)sc23)c(F)c1

1: 6.60 to 7.30; 2: 6.60 to 7.30; 3: > 7.30

Each of the following entries comes with a recorded value; kindly state pIC50 for each.
1. Cn1ccnc1-c1cc2nccc(Oc3ccc(NC(=S)NC(=O)Cc4ccc(F)cc4F)cc3F)c2s1
2. CN1CC=C(c2cc3nccc(Oc4ccc(NC(=S)NC(=O)Cc5ccc(F)cc5)cc4F)c3s2)CC1
3. C#Cc1ccc(CC(=O)NC(=S)Nc2ccc(Oc3ccnc4cc(-c5cn(CC)cn5)sc34)c(F)c2)cc1F

1. > 7.30
2. > 7.30
3. 6.60 to 7.30

Each of the following entries comes with a recorded value; kindly state pIC50 for each.
1. CN1CCN(CCN(C)Cc2ccc(-c3cc4nccc(Oc5ccc(NC(=S)NC(=O)Cc6ccccc6)cc5F)c4s3)cc2)CC1
2. COc1ccccc1CC(=O)NC(=S)Nc1ccc(Oc2ccnc3cc(-c4cn(CC(N)=O)cn4)sc23)c(F)c1

1. > 7.30
2. 6.60 to 7.30

* * *

Could you please report measured IC50 for the items listed next?
# measured target: VEGF receptor KDR (Homo sapiens, UniProt P35968)
# Construct: made in house; host or cells: Sf9 cells (Spodoptera frugiperda), recombinant baculovirus
# test summary: In vitro receptor tyrosine kinase assay (DELFIA), VEGF receptor KDR
# Assay type: biochemical
# setup conditions: Table 31; ATP 0.6 uM, enzyme 5 nM; read-out: VEGFR IC50

Some solved entries appear below for comparison.
C#Cc1ccc(CC(=O)NC(=S)Nc2ccc(Oc3ccnc4cc(-c5nccn5C)sc34)c(F)c2)cc1 : 50 to 250 nM
C#Cc1ccc(CC(=O)NC(=S)Nc2ccc(Oc3ccnc4cc(-c5cn(CC)cn5)sc34)c(F)c2)cc1 : < 50 nM
COCCNCc1cccc(-c2cc3nccc(Oc4ccc(NC(=S)NC(=O)Cc5ccc(F)cc5)cc4F)c3s2)n1 : 250 to 500 nM

Each of the following entries comes with a recorded value; kindly state IC50 for each.
1. C#Cc1cc(F)ccc1CC(=O)NC(=S)Nc1ccc(Oc2ccnc3cc(-c4cn(CC)cn4)sc23)c(F)c1
2. C#Cc1cc(F)ccc1CC(=O)NC(=S)Nc1ccc(Oc2ccnc3cc(-c4cn(C)cn4)sc23)c(F)c1
3. CCn1cnc(-c2cc3nccc(Oc4ccc(NC(=S)NC(=O)Cc5ccc(F)cc5F)cc4F)c3s2)c1
4. CCn1ccnc1-c1cc2nccc(Oc3ccc(NC(=S)NC(=O)Cc4ccc(F)cc4F)cc3F)c2s1
5. COCCNCc1ccc(-c2cc3nccc(Oc4ccc(NC(=O)NC(=O)Cc5ccc(F)cc5)cc4F)c3s2)cc1
6. C#Cc1ccccc1CC(=O)NC(=S)Nc1ccc(Oc2ccnc3cc(C4=CCN(C)CC4)sc23)c(F)c1
7. C#Cc1ccccc1CC(=O)NC(=S)Nc1ccc(Oc2ccnc3cc(-c4ccc(CNCCOC)cn4)sc23)c(F)c1

< 50 nM
< 50 nM
< 50 nM
50 to 250 nM
50 to 250 nM
50 to 250 nM
< 50 nM
